target: Yes (Homo sapiens)
Sequence (P07947 whole entry): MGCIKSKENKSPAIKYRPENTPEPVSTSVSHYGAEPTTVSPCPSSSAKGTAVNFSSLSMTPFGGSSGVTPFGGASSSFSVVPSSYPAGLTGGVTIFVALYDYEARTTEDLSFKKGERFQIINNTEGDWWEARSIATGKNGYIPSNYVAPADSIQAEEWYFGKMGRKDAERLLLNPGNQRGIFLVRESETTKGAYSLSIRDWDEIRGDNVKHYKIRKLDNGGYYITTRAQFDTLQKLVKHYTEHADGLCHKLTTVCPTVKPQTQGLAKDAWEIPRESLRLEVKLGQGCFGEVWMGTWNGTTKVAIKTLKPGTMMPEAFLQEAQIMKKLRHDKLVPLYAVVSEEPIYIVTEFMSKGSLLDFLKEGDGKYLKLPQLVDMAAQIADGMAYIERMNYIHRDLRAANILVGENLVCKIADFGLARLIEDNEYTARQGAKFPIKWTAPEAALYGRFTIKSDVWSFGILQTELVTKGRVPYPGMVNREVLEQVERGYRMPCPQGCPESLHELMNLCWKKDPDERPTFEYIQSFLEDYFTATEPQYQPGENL
IC50 for assorted compounds
Number only, in nM; omit the unit.

COc1ccc(Cl)c(-c2c(Cl)n(C(C)(C)C)c3ncnc(N)c23)c1 (single isomer, unassigned) [2e-(S)] = 727

# IC50 of COc1ccc(Cl)c(-c2c(Cl)n(C(C)(C)C)c3ncnc(N)c23)c1 (single isomer, unassigned) [2e-(R)] = 895

// recorded IC50 for COc1cccc(-c2cn(C(C)(C)C)c3ncnc(N)c23)c1 [Compound 5, reference compound] : 92

----------
target: UniProt P00533
Sequence (P00533 25-1210): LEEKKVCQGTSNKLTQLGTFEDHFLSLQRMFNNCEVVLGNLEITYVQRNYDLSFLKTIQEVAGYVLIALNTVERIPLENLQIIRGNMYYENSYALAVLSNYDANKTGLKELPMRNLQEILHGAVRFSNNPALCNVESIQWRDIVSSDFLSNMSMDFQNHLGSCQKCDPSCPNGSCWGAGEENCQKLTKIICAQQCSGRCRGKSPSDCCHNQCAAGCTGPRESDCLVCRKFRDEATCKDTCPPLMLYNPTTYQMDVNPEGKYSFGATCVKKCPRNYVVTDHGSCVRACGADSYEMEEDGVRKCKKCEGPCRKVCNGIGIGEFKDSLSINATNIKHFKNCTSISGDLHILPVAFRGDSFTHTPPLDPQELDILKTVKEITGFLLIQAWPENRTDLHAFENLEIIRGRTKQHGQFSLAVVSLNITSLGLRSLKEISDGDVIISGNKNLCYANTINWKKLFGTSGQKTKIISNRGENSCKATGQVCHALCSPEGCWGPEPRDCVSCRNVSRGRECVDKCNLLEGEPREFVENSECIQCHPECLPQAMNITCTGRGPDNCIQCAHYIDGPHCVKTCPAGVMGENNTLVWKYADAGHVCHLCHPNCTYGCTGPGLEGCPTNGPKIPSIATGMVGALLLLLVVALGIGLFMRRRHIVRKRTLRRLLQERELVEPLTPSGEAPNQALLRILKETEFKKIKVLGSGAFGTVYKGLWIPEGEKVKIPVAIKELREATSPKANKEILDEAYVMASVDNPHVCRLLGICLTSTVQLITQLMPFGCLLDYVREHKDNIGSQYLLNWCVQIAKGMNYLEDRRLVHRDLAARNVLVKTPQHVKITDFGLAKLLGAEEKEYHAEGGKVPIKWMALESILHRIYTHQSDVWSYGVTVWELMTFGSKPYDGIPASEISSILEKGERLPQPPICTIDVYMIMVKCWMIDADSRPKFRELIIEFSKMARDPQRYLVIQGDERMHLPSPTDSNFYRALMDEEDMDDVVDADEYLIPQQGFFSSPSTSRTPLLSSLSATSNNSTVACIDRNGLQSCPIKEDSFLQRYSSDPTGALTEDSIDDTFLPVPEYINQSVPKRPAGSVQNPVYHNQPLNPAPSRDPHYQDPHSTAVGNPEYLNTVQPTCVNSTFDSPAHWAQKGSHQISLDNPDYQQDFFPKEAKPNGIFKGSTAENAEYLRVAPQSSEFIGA
This listing pairs compounds with measured IC50.

COc1cccc(-c2cn(C(C)(C)C)c3ncnc(N)c23)c1 [Compound 5, reference compound] = 0.641 µM
COc1ccc(Cl)c(-c2c(Cl)n(C(C)(C)C)c3ncnc(N)c23)c1 (single isomer, unassigned) [2e-(R)] = > 10 µM

Shift focus to the following entry.
Form: compound = COc1ccc(Cl)c(-c2c(Cl)n(C(C)(C)C)c3ncnc(N)c23)c1 (single isomer, unassigned) [2e-(S)] ; IC50 = > 10 µM
